test system: HOP-18; assay: NCI tumour cell line growth inhibition, 48 h
Calls of active or inactive are those of the source. Cut-off read from the data, not from the text of the source: active = GI50 up to about 1.1 µM and inactive = higher.
Permitted responses: active, inactive

Field: example entries. Status: answers known.
Query: Answer briefly: the call reported for C=CC[P@]1(=O)O[C@H](c2ccccc2)C(C)N1C(C)C (stereo partly drawn) in this assay.
Result: inactive

Query: Answer briefly: the call reported for CCc1cccc(C(C)C)c1NC(=O)C(=O)C1C(=O)NC(=O)NC1=O in this assay.
Result: inactive

Query: Answer briefly: the call reported for CSc1cnc2ccccc2c1Sc1cn(C)c2ccccc2c1=O in this assay.
Result: inactive

Query: Answer briefly: the call reported for COC(=O)C(Cc1cc(OC)c(OC)c(OC)c1)c1ccc(OC)cc1 (stereo not drawn) in this assay.
Result: inactive

Query: Answer briefly: the call reported for COc1ccc(C(=O)CC2=Nc3nnc(CCCCCCCc4nnc5n4C(=O)C(CC(=O)c4ccc(OC)cc4)=N5)n3C2=O)cc1 in this assay.
Result: inactive

Next, consider the following compound.
Query: Answer briefly: the call reported for O=C1ON(Cc2ccccc2)C(c2ccccc2)N1c1ccccc1 (stereo not drawn) in this assay.
Result: inactive

====

tested on: UACC-257; experiment: NCI tumour cell line growth inhibition, 48 h
Activity calls are given as the source filed them. Cut-off read from the data, not from the text of the source: active = GI50 up to about 1.1 µM and inactive = higher.
Permitted responses: active, inactive

Field: example entries. Status: answers known.
Query: Answer briefly: the call reported for COC(=O)C1=C(C(=O)OC)C2(C)CCC(=O)C1O2 (stereo unspecified) in this assay.
Result: inactive

Query: Answer briefly: the call reported for CC(=O)O[C@H]1C(=O)[C@]2(C)[C@@H](OC(=O)OCC(O)CO)C[C@H]3OC[C@@]3(OC(C)=O)[C@H]2[C@H](OC(=O)c2ccccc2)[C@]2(O)C[C@H](OC(=O)[C@H](O)[C@@H](NC(=O)c3ccccc3)c3ccccc3)C(C)=C1C2(C)C (stereo partly specified) [PACLITAXEL CERIBATE] in this assay.
Result: active

Query: Answer briefly: the call reported for Cc1c(C)c(C)c(-n2c(=O)n(C)c(=O)n2C(C)(C)C)c(C)c1C in this assay.
Result: inactive

Query: Answer briefly: the call reported for COc1ccc(-c2cc(-c3cc(OC)c(OC)c(OC)c3)cc(-c3cc4ccccc4oc3=O)n2)cc1 in this assay.
Result: inactive

Query: Answer briefly: the call reported for O=P(O)(O)C1CCCC(P(=O)(O)O)N1 (stereo unspecified) in this assay.
Result: inactive

Query: Answer briefly: the call reported for COc1cc2c(/C=C3/C(=O)Nc4ccc(O)cc43)c(Cl)n(Cc3ccccc3)c2cc1C in this assay.
Result: active

Query: Answer briefly: the call reported for O=NN1C(c2ccccc2)CCCC1c1ccccc1 (stereo unspecified) in this assay.
Result: inactive

Query: Answer briefly: the call reported for C[C@@H](NC(=O)c1ccc(CNC(=O)/C=C/c2cccc(Oc3ccccc3)c2)cc1)c1ccccc1 in this assay.
Result: inactive

Next, consider the following molecule.
Query: Answer briefly: the call reported for CNCCCNC1(c2cc3ccccc3s2)CCCCC1 in this assay.
Result: inactive

====

system: CCRF-CEM; assay: NCI tumour cell line growth inhibition, 48 h
The source made the active and inactive calls. Cut-off read from the data, not from the text of the source: active = GI50 up to about 1.1 µM and inactive = higher. Where a SMILES comes first, the peptide text is derived from it. [ ]: non-standard residue; d: D form. 2Nal = N[CH](Cc1ccc2ccccc2c1)C(=O)O
attribute-measured: GI50

Sample records with GI50:
Query: Report GI50 for CC(NC(=O)C(N)Cc1ccccc1)C(=O)NC(Cc1ccc(O)cc1)C(=O)NC(Cc1c[nH]c2ccccc12)C(=O)NC(CCCCN)C(=O)NC(C(=O)NC(C)C(=O)NC(Cc1ccc2ccccc2c1)C(N)=O)C(C)C (stereo not drawn) (H-FAYWKVA[2Nal]-NH2; configuration not given here) please.
Result: > 12.5 µM (inactive)

Query: Report GI50 for CC[n+]1c(/C=C/c2ccc(N(CCCl)CCCl)cc2)ccc2cc(Br)ccc21 please.
Result: 0.345 µM (active)

Continuing:
Query: Report GI50 for CC(C)/C=N\N1C(N)=C(C#N)C(C#N)(C#N)C1C(C)C (stereo not drawn) please.
Result: 36.2 µM (inactive)

====

test system: A549; test: NCI tumour cell line growth inhibition, 48 h
Activity calls are given as the source filed them. Cut-off read from the data, not from the text of the source: active = GI50 up to about 1.1 µM and inactive = higher.
attribute-measured: GI50

Query: Report GI50 for CCOc1ccc(NC(=O)/C(=N\N)C(C(=O)OC)c2nc3ccc(Cl)cc3nc2O)cc1 (stereo not given) please.
Result: > 100 µM (inactive)

Query: Report GI50 for Cc1ccc(S(=O)(=O)NC(=O)Nc2ccc(S(N)(=O)=O)cc2S(N)(=O)=O)cc1 please.
Result: > 100 µM (inactive)

Query: Report GI50 for CCOC(=O)NNC(=O)C1CSC(c2ccccc2)N1C(C)=O (stereo not given) please.
Result: > 100 µM (inactive)

Query: Report GI50 for OCC(CCc1ccccc1I)C1=CCC2(CC1)OCCO2 (stereo not given) please.
Result: 19.8 µM (inactive)

Continuing:
Query: Report GI50 for Cc1cc2[nH]c(=NS(=O)(=O)c3cc(C)c(Cl)cc3S)[nH]c2cc1C please.
Result: 35.7 µM (inactive)

====

system: OVCAR-3; test: NCI tumour cell line growth inhibition, 48 h
Counter-ions that a name gives are not always drawn. Active and inactive are the calls of the source. Rule as the data show it: active = GI50 up to about 1.1 µM and inactive = higher.
Permitted responses: t for active, f for inactive

Query: Answer briefly: the call reported for COC1CC(OC)C(O)C(CO)O1 (configuration not stated) in this assay.
Result: f

Query: Answer briefly: the call reported for COC(=O)C1=CO[C@@H](C)[C@@H]2Cn3ccc4c5ccccc5nc-4c3C[C@H]12 [ALSTONINE HYDROCHLORIDE] in this assay.
Result: f

Query: Answer briefly: the call reported for Cc1ccc(Nc2n[nH]c(NS(=O)(=O)c3cc(C(=O)Nc4ccc(Cl)cc4)c(Cl)cc3S)n2)cc1 in this assay.
Result: f

Query: Answer briefly: the call reported for CC(C)=NNC(=S)NC12CC3CC(CC(C3)C1)C2 in this assay.
Result: f

Query: Answer briefly: the call reported for CC(=O)O[C@@]12CO[C@@H]1CC(O)[C@@]1(C)C(=O)[C@H](O)C3=C(C)C(O)C[C@@](O)(C(OC(=O)c4ccccc4)C12)C3(C)C (some centres not stated) in this assay.
Result: t

Continuing:
Query: Answer briefly: the call reported for N=C(N)N/N=C/c1ccc(O)c(C(=O)O)c1 in this assay.
Result: f

Query: Answer briefly: the call reported for O=Cc1cc2c(o1)C(=O)c1ccccc1C2=O in this assay.
Result: t

====

tested on: A549; assay: NCI tumour cell line growth inhibition, 48 h
Active and inactive are the calls of the source. Cut-off read from the data, not from the text of the source: active = GI50 up to about 1.1 µM and inactive = higher.
Parameter: GI50. Scope: all listed entries.

Sample records with GI50:
Query: Report GI50 for N#CC1=C(C#N)/C(=C(\C#N)C(C#N)C#N)N=C1N please.
Result: 21.4 µM (inactive)

Query: Report GI50 for O=CC(O)C(O)C1OC(=O)c2cc(O)c(O)c(O)c2C2=C(O)C(O)=C3OC(=O)c4c(c(O)c(O)c5c4C3C2C(=O)O5)-c2c(cc(O)c(O)c2O)C(=O)OCC1O (configuration not stated) please.
Result: 24.5 µM (inactive)

Query: Report GI50 for CN1NC(c2ccccc2)=C(C#N)C(=O)CC1c1ccc(Br)cc1 (configuration not stated) please.
Result: 32.2 µM (inactive)

Continuing:
Query: Report GI50 for CC(C)(C)OC(=O)N[C@H]1CC(=O)c2ccccc2N(CC(=O)O)C1=O please.
Result: > 100 µM (inactive)

Query: Report GI50 for O=C1C2c3[nH]c4ccccc4c3C3CCC(c4ccccc4)CC3C2C(=O)N1c1ccccc1 (configuration not stated) please.
Result: > 100 µM (inactive)

Query: Report GI50 for Cc1c(C)c(C)c(-n2c(=O)n(C)c(=O)n2C(C)(C)C)c(C)c1C please.
Result: > 100 µM (inactive)

Query: Report GI50 for O=S(=O)(O)c1ccc(/N=N\c2ccc(/N=N/c3ccc(/C=C/c4ccc(/N=[N+](\[O-])c5ccc(/C=C/c6ccc(/N=N/c7ccc(/N=N/c8ccc(S(=O)(=O)O)cc8)c8ccccc78)cc6S(=O)(=O)O)c(S(=O)(=O)O)c5)cc4S(=O)(=O)O)c(S(=O)(=O)O)c3)c3ccccc23)cc1 please.
Result: > 89.1 µM (inactive)

====

test system: A549; assay: NCI tumour cell line growth inhibition, 48 h
Where a name gives a salt, the structure may show the parent alone. The source made the active and inactive calls. No stated cut-off is given here; in the data, active = GI50 up to about 1.1 µM and inactive = higher.
Permitted responses: active, inactive

Field: example entries. Status: answers known.
Query: Answer briefly: the call reported for O=C(O)Cc1cccc2c1Oc1ccccc1S2 in this assay.
Result: inactive

Query: Answer briefly: the call reported for CC(C)=NNC(=S)NC12CC3CC(CC(C3)C1)C2 in this assay.
Result: inactive

Query: Answer briefly: the call reported for Nc1nnc(-c2ccco2)c(-c2ccco2)n1 in this assay.
Result: inactive

Query: Answer briefly: the call reported for COC(=O)C1=CO[C@@H](C)[C@@H]2Cn3ccc4c5ccccc5nc-4c3C[C@H]12 [ALSTONINE HYDROCHLORIDE] in this assay.
Result: inactive

Next, consider the following compound.
Query: Answer briefly: the call reported for COc1ccc(CCNC(=O)[C@H]2CCCC[C@@H]2CCO)cc1OC in this assay.
Result: inactive
